Biological target: human Y2 receptor (human) (UniProt P49146)
Sequence (P49146 whole entry): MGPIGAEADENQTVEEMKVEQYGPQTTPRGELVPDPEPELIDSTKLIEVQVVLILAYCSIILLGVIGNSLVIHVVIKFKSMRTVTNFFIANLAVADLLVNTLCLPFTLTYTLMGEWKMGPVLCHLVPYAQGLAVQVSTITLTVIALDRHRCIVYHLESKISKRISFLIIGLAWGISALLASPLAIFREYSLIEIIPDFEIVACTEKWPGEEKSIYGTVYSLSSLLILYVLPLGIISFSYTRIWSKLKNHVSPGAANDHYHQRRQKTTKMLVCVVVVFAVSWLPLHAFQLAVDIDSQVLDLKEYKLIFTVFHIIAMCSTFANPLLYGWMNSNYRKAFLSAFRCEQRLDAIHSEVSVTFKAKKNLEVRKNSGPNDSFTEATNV
Experiment: RBA: [125I]-PYY displacement, hY2R/CHO membranes
Non-standard residues stand in square brackets, D forms with d. *: point of attachment. Tyr(2-F) = N[C@@H](Cc1ccc(O)cc1F)C(=O)O; Cha = N[C@@H](CC1CCCCC1)C(=O)O; Isobutyryl = CC(C)C(=O)*; Abu = CC[C@H](N)C(=O)O; Aib = CC(C)(N)C(=O)O
Readout: IC50 Ratio (vs PYY(3-36))

Isobutyryl-R[Abu][Cha][Cha]NL[Aib]TRQR[Tyr(2-F)]-NH2 (SMILES CC[C@H](NC(=O)[C@H](CCCNC(=N)N)NC(=O)C(C)C)C(=O)N[C@@H](CC1CCCCC1)C(=O)N[C@@H](CC1CCCCC1)C(=O)N[C@@H](CC(N)=O)C(=O)N[C@@H](CC(C)C)C(=O)NC(C)(C)C(=O)N[C@H](C(=O)N[C@@H](CCCNC(=N)N)C(=O)N[C@@H](CCC(N)=O)C(=O)N[C@@H](CCCNC(=N)N)C(=O)N[C@@H](Cc1ccc(O)cc1F)C(N)=O)[C@@H](C)O) [Isobutanoyl-[Abu26, Cha27,28, Aib31, Tyr(2F)36]-PYY(25-36)] = 19

The origin of these recorded values is patent US20120172293A1.
